Species on record: Rattus norvegicus
experimental.protocol: Open TG-GATES - Regimen: Single
Format: toxicity, organism-based, Sprague-Dawley
Set-up: regimen Single, gender Male, age 6 weeks
condition.description: in vivo, po, 1000 mg/kg, 6 h, tissue Blood, route gavage, dose level High
Would you mind telling me the reported PT of each entry?
State the answer as a number, implicitly in s.

Look at this compound and give its reported PT. `NC(N)=Nc1nc(CSCCC(N)=NS(N)(=O)=O)cs1`
12.5

Requested read-out: PT. Entry: `COC1=CC(=O)C[C@@H](C)[C@]12Oc1c(Cl)c(OC)cc(OC)c1C2=O`
13.3

Field request: PT | item: COc1ccc2[nH]c([S+]([O-])Cc3ncc(C)c(OC)c3C)nc2c1 (centres undefined)
13.2

Give its PT value. Item: CCOC(=O)CCC(=O)O[C@H]1[C@H](O[C@@H]2[C@@H](C)[C@H](O[C@H]3C[C@@](C)(OC)[C@@H](O)[C@H](C)O3)[C@@H](C)C(=O)O[C@H](CC)[C@@](C)(O)[C@H](O)[C@@H](C)C(=O)[C@H](C)C[C@@]2(C)O)O[C@H](C)C[C@@H]1N(C)C [ERYTHROMYCIN ETHYLSUCCINATE]
15.7

* * *

For each entry below, report its Ca value.
Species: Rattus norvegicus
experimental.protocol: Open TG-GATES - Regimen: Daily Repeat
Format: toxicity, organism-based, Sprague-Dawley
Set-up: regimen Daily Repeat, gender Male, age 6 weeks
condition.description: in vivo, po, 300 mg/kg, 72 h, tissue Plasma, route gavage, dose level Middle, time 3 day
Give the value; after it, write the unit.

// lookup Ca for COC1=CC(=O)C[C@@H](C)[C@]12Oc1c(Cl)c(OC)cc(OC)c1C2=O [GRISEOFULVIN]
10.8 mg/dL

Field request: Ca | item: CCOc1ccc(NC(=O)CC(C)O)cc1 (stereo not given) [BUCETIN]
10.8 mg/dL

Consider the molecule COc1ccc2[nH]c([S+]([O-])Cc3ncc(C)c(OC)c3C)nc2c1 (stereo not given) [OMEPRAZOLE] and give its measured Ca.
10.5 mg/dL

Quick check: Ca of NC(N)=Nc1nc(CSCCC(N)=NS(N)(=O)=O)cs1 [FAMOTIDINE] ?
10.9 mg/dL

// Ca lookup, key: CCOC(=O)CCC(=O)O[C@H]1[C@H](O[C@@H]2[C@@H](C)[C@H](O[C@H]3C[C@@](C)(OC)[C@@H](O)[C@H](C)O3)[C@@H](C)C(=O)O[C@H](CC)[C@@](C)(O)[C@H](O)[C@@H](C)C(=O)[C@H](C)C[C@@]2(C)O)O[C@H](C)C[C@@H]1N(C)C [ERYTHROMYCIN ETHYLSUCCINATE]
10.4 mg/dL

* * *

Species on record: Rattus norvegicus
experimental.protocol: Open TG-GATES - Regimen: Single
Type: toxicity, organism-based, Sprague-Dawley
Parameters: regimen Single, gender Male, age 6 weeks
condition.description: in vivo, po, 0 mg/kg, 24 h, tissue Plasma, route gavage, dose level Control
value.type: log10(TBIL) (log10 of the value in mg/dL)
Reminder: these figures are log10 of reported TBIL, in mg/dL before transformation.

For the compound NNC(=O)c1ccncc1 [ISONIAZID] , what log10(TBIL) is on record?
-1.00

Look at this compound and give its reported log10(TBIL). CCOc1ccc(NC(=O)CC(C)O)cc1 (stereo not drawn) [BUCETIN]
-1.30

Which value of log10(TBIL) has been reported for COc1ccc2[nH]c([S+]([O-])Cc3ncc(C)c(OC)c3C)nc2c1 (stereo not drawn) [OMEPRAZOLE] in the records?
-1.00

What does the record list as log10(TBIL) for NC(N)=Nc1nc(CSCCC(N)=NS(N)(=O)=O)cs1 [FAMOTIDINE] ?
-1.00

Which log10(TBIL) is reported for this compound? Cc1ccc(C)c(OCCCC(C)(C)C(=O)O)c1 [GEMFIBROZIL]
-1.47

// log10(TBIL) lookup, key: CC(C)OC(=O)C(C)(C)Oc1ccc(C(=O)c2ccc(Cl)cc2)cc1 [FENOFIBRATE]
-1.40

Need log10(TBIL), item CN(C)CCCN1c2ccccc2CCc2ccc(Cl)cc21 [CLOMIPRAMINE]
-1.21

Would you kindly share the measured log10(TBIL) for CC/C(=C(\c1ccccc1)c1ccc(OCCN(C)C)cc1)c1ccccc1 [TAMOXIFEN] ?
-1.47

Bench note: what log10(TBIL) did CCCNC(=O)NS(=O)(=O)c1ccc(Cl)cc1 [CHLORPROPAMIDE] show?
-1.47

So what does the record say about log10(TBIL) for CN(C)CCCN1c2ccccc2CCc2ccccc21 [IMIPRAMINE] ?
-1.22

Find the recorded log10(TBIL) belonging to CN1C(=O)CN=C(c2ccccc2)c2cc(Cl)ccc21 [DIAZEPAM] and report it.
-0.52

Query (compound): CCOC(=O)CCC(=O)O[C@H]1[C@H](O[C@@H]2[C@@H](C)[C@H](O[C@H]3C[C@@](C)(OC)[C@@H](O)[C@H](C)O3)[C@@H](C)C(=O)O[C@H](CC)[C@@](C)(O)[C@H](O)[C@@H](C)C(=O)[C@H](C)C[C@@]2(C)O)O[C@H](C)C[C@@H]1N(C)C [ERYTHROMYCIN ETHYLSUCCINATE] ; field requested: log10(TBIL)
-1.62

Look at this compound and give its reported log10(TBIL). `CN(C)CCN(Cc1cccs1)c1ccccn1`
-1.74

Field request: log10(TBIL) | item: COc1cc2c(c(OC)c1OC)-c1ccc(OC)c(=O)cc1[C@@H](NC(C)=O)CC2 [COLCHICINE]
-0.40

Find the recorded log10(TBIL) belonging to C[C@@H]1C[C@H]2[C@@H]3CCC4=CC(=O)C=C[C@]4(C)[C@@]3(F)[C@@H](O)C[C@]2(C)[C@@]1(O)C(=O)CO [DEXAMETHASONE] and report it.
-1.40

Which measured log10(TBIL) value corresponds to CC1=C(/C=C/C(C)=C/C=C/C(C)=C/CO)C(C)(C)CCC1 [RETINOL] ?
-1.80

// log10(TBIL) lookup, key: COC1=CC(=O)C[C@@H](C)[C@]12Oc1c(Cl)c(OC)cc(OC)c1C2=O [GRISEOFULVIN]
-0.70

Entry O=C(CCCN1CCC(O)(c2ccc(Cl)cc2)CC1)c1ccc(F)cc1 [HALOPERIDOL] has what log10(TBIL)?
-0.40

* * *

Species: Rattus norvegicus
experimental.protocol: Open TG-GATES - Regimen: Single
Format: toxicity, organism-based, Sprague-Dawley
Design: regimen Single, gender Male, age 6 weeks
condition.description: in vivo, po, 100 mg/kg, 24 h, tissue Plasma, route gavage, dose level High
I'd be grateful if you could share measured BUN for these entries.
# unit: mg/dL | format: bare number

GET /values?readout=BUN&item= `CC1=C(/C=C/C(C)=C/C=C/C(C)=C/CO)C(C)(C)CCC1`
14.2

Reported BUN, molecule `CN(C)CCCN1c2ccccc2CCc2ccccc21` : ____
12.8

Name the reported BUN value associated with the molecule `CN(C)CCCN1c2ccccc2CCc2ccc(Cl)cc21`
15.4

// query BUN value for entry `CN(C)CCN(Cc1cccs1)c1ccccn1`
16

* * *

Species: Rattus norvegicus
experimental.protocol: Open TG-GATES - Regimen: Daily Repeat
Format: toxicity, organism-based, Sprague-Dawley
Parameters: regimen Daily Repeat, gender Male, age 6 weeks
condition.description: in vivo, po, 10 mg/kg, 72 h, tissue Blood, route gavage, dose level Low, time 3 day
Please provide measured Eos for the entries that follow.
Respond with the bare value in %.

So what does the record say about Eos for `CN(C)CCN(Cc1cccs1)c1ccccn1` ?
0.8

I am curious: what Eos value has been reported for CC1=C(/C=C/C(C)=C/C=C/C(C)=C/CO)C(C)(C)CCC1 [RETINOL] ?
0.8

Tell me the measured Eos of CN(C)CCCN1c2ccccc2CCc2ccccc21 [IMIPRAMINE] , please.
1

Eos for CC(C)OC(=O)C(C)(C)Oc1ccc(C(=O)c2ccc(Cl)cc2)cc1 [FENOFIBRATE] ?
1.4

* * *

Organism: Rattus norvegicus
experimental.protocol: Open TG-GATES - Regimen: Single
Type: toxicity, organism-based, Sprague-Dawley
Parameters: regimen Single, gender Male, age 6 weeks
condition.description: in vivo, po, 0 mg/kg, 3 h, tissue Blood, route gavage, dose level Control
value.type: Fbg (mg/dL)
Respond with the bare value in mg/dL.

Reported Fbg, molecule `O=C(CCCN1CCC(O)(c2ccc(Cl)cc2)CC1)c1ccc(F)cc1` : ____
202

May I ask what Fbg has been recorded for `CC/C(=C(\c1ccccc1)c1ccc(OCCN(C)C)cc1)c1ccccc1` ?
248.6

Data request, read-out Fbg, for `Cc1ccc(C)c(OCCCC(C)(C)C(=O)O)c1`
276.4

Using the record for `CN(C)CCN(Cc1cccs1)c1ccccn1` , report its Fbg.
308

Find the recorded Fbg belonging to CCOc1ccc(NC(=O)CC(C)O)cc1 (stereo not drawn) and report it.
294.8

Fill in: Fbg of `NC(N)=Nc1nc(CSCCC(N)=NS(N)(=O)=O)cs1` is ___
209.8

What value of Fbg has been reported for the following molecule? `NNC(=O)c1ccncc1`
232.2

For the molecule CCOC(=O)CCC(=O)O[C@H]1[C@H](O[C@@H]2[C@@H](C)[C@H](O[C@H]3C[C@@](C)(OC)[C@@H](O)[C@H](C)O3)[C@@H](C)C(=O)O[C@H](CC)[C@@](C)(O)[C@H](O)[C@@H](C)C(=O)[C@H](C)C[C@@]2(C)O)O[C@H](C)C[C@@H]1N(C)C [ERYTHROMYCIN ETHYLSUCCINATE] , what Fbg is on record?
292.2

I am curious: what Fbg value has been reported for `COC1=CC(=O)C[C@@H](C)[C@]12Oc1c(Cl)c(OC)cc(OC)c1C2=O` ?
224.4

I have this molecule here, CCCNC(=O)NS(=O)(=O)c1ccc(Cl)cc1 [CHLORPROPAMIDE] , and I need its recorded Fbg.
290

# get_value(readout='Fbg', item= CC(C)OC(=O)C(C)(C)Oc1ccc(C(=O)c2ccc(Cl)cc2)cc1 [FENOFIBRATE] )
289.4

What does the record list as Fbg for `CC1=C(/C=C/C(C)=C/C=C/C(C)=C/CO)C(C)(C)CCC1` ?
294.8

# Fbg lookup, item `C[C@@H]1C[C@H]2[C@@H]3CCC4=CC(=O)C=C[C@]4(C)[C@@]3(F)[C@@H](O)C[C@]2(C)[C@@]1(O)C(=O)CO`
235.6

What value of Fbg has been recorded for this entry: `CN(C)CCCN1c2ccccc2CCc2ccc(Cl)cc21`
259.6

// returns reported Fbg for input `COc1cc2c(c(OC)c1OC)-c1ccc(OC)c(=O)cc1[C@@H](NC(C)=O)CC2`
209.4

Please look up its Fbg: `CN1C(=O)CN=C(c2ccccc2)c2cc(Cl)ccc21`
213.4

// returns reported Fbg for input `CN(C)CCCN1c2ccccc2CCc2ccccc21`
270.6

Name the recorded Fbg for COc1ccc2[nH]c([S+]([O-])Cc3ncc(C)c(OC)c3C)nc2c1 (stereo not drawn) .
206.4

FYI, the data here is from ChEMBL document CHEMBL3885861.
